- System: MHH-CALL-3
- method summary: selective drug sensitivity score (sDSS, relative to normal bone marrow) (sDSS (score)); higher = more potent and effective on the cell line relative to normal bone marrow cells;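 further: ALL cell lines in 384-well plates, five doses spanning 10,000-fold, each plate scaled between vehicle and 100 µmol/L benzalkonium chloride controls, sDSS an adapted area-under-curve metric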
- condition set: 72 h

compound	selective drug sensitivity score
O=C(Nc1cccc(NC(=O)c2cccc(O)c2O)c1)c1cccc(O)c1O [MST-312] (top concentration 10000 nM)	-4
Nc1ncnc2c1c(-c1cccc(OCc3ccccc3)c1)cn2[C@H]1C[C@@H](CN2CCC2)C1 [NVP-AEW541] (top concentration 10000 nM)	-7.62
CCCCC(=O)OCC(=O)[C@]1(O)Cc2c(O)c3c(c(O)c2[C@@H](O[C@H]2C[C@H](NC(=O)C(F)(F)F)[C@H](O)[C@H](C)O2)C1)C(=O)c1c(OC)cccc1C3=O [Valrubicin] (top concentration 5000 nM)	16

* * *

selective drug sensitivity score listing for selected molecules.
- Tested on: PF-382
- method summary: selective drug sensitivity score (sDSS, relative to normal bone marrow) (sDSS (score)); higher = more potent and effective on the cell line relative to normal bone marrow cells
- condition set: 72 h
measure name: selective drug sensitivity score

> print(dat)
                                   molecule  result
1  CC(C)(C)Cn1c(N)nc2ccc(-c3[nH]c(C(C)(C)C)nc3-c3ccc(F)cc3)nc21 [Ralimetinib] (top concentration 10000 nM)    2.06
2  Nc1ncnc2c1c(-c1cccc(OCc3ccccc3)c1)cn2[C@H]1C[C@@H](CN2CCC2)C1 [NVP-AEW541] (top concentration 10000 nM)   -1.52
3  C=CC(=O)Nc1cccc(Oc2nc(Nc3ccc(N4CCN(C)CC4)cc3)nc3ccsc23)c1 [Olmutinib] (top concentration 1000 nM)   -0.02
4  CC(C)Oc1ccc(-c2nn([C@@H](C)c3oc4ccc(F)cc4c(=O)c3-c3cccc(F)c3)c3ncnc(N)c23)cc1F [TGR-1202] (top concentration 2500 nM)   -2.56
5  CN1CCN(C(=O)c2ccc3cc(CCNc4ncnc5ccc(C#N)cc45)ccc3c2)CC1 [Senexin_B] (top concentration 1000 nM)    -0.1
6  CCNc1nc(Nc2cc(F)c(C(=O)N3CCOCC3)cc2OC)ncc1C(F)(F)F [GNE-7915] (top concentration 1000 nM)   -0.06

* * *

- Tested on: PF-382
- method summary: selective drug sensitivity score (sDSS, relative to normal bone marrow) (sDSS (score)); higher = more potent and effective on the cell line relative to normal bone marrow cells
- condition set: 72 h
Label TRUE when selective drug sensitivity score is at or above 0; otherwise label FALSE.

compound	qualitative label
COc1cc2c(Nc3ccc(Cl)c(Cl)c3F)ncnc2cc1OC[C@@H]1C[C@@H]2CN(C)C[C@@H]2C1 [Tesevatinib] (top concentration 1000 nM)	FALSE
Cc1ncc(Cl)cc1NCc1ccc(C(=O)N[C@@H](CC2CCCC2)C(=O)NC2CC2)s1 (top concentration 5000 nM)	FALSE
Nc1ncnc2c1nc(N)n2[C@@H]1O[C@H](CO)[C@@H](O)[C@H]1O [8-amino-adenosine] (top concentration 50000 nM)	TRUE
Cn1cnc2c(F)c(Nc3ccc(Br)cc3Cl)c(C(=O)NOCCO)cc21 [Selumetinib] (top concentration 10000 nM)	FALSE
CN(c1ncccc1CNc1nc(Nc2ccc3c(c2)CC(=O)N3)ncc1C(F)(F)F)S(C)(=O)=O (top concentration 10000 nM)	FALSE
O=C1CCc2c(Oc3ccc4c(c3)[C@@H]3[C@H](O4)[C@H]3c3nc4cc(C(F)(F)F)ccc4[nH]3)ccnc2N1 [Lifirafenib (BGB-283)] (top concentration 10000 nM)	TRUE
CC(C)(C)c1nc(-c2cccc(NS(=O)(=O)c3c(F)cccc3F)c2F)c(-c2ccnc(N)n2)s1 [Dabrafenib] (top concentration 2500 nM)	TRUE
CC[C@@H]1[C@H](F)C(=O)N[C@@H]1COc1nccc2cc(C(N)=O)c(OC)cc12 (top concentration 10000 nM)	FALSE
CCN(CC)CCNC(=O)c1c(C)[nH]c(/C=C2\C(=O)Nc3ccc(F)cc32)c1C [Sunitinib] (top concentration 1000 nM)	FALSE
NC(=O)N1CCC(CC(=O)N2CCC([C@H]3c4ncc(Br)cc4CCc4cc(Cl)cc(Br)c43)CC2)CC1 [Lonafarnib] (top concentration 100000 nM)	TRUE
Nc1cc(F)ccc1NC(=O)c1ccc(CNC(=O)/C=C/c2cccnc2)cc1 [Tucidinostat] (top concentration 10000 nM)	TRUE
C#Cc1cccc(Nc2ncnc3cc(OCCOC)c(OCCOC)cc23)c1 [Erlotinib] (top concentration 10000 nM)	TRUE
